Data origin: ChEMBL document CHEMBL4354868

test system: Acinetobacter baumannii ATCC 17978; experiment: Inhibition of carbapenem-resistant Acinetobacter baumannii ATCC 17978 OXA-24/40 expressed in Escherichia coli BL21 assessed as inactivation rate constant using nitrocefin as substrate measured after 15 mins by spectrophotometry analysis
quantityName: Kinact (ms-1)
Field format: number, assumed ms-1, no unit text.

Completed entries (count: 4):
linenotation=C[C@]1(COC(=O)Cc2ccc(O)c(O)c2)[C@H](C(=O)O)N2C(=O)/C(=C/c3cc(Br)ccn3)[C@H]2S1(=O)=O quantitativeresult=22
linenotation=C[C@]1(COC(=O)Cc2ccc(O)c(O)c2)[C@H](C(=O)O)N2C(=O)/C(=C/c3nccc4ccsc34)[C@H]2S1(=O)=O quantitativeresult=11
linenotation=C[C@]1(COC(=O)Cc2ccc(O)c(O)c2)[C@H](C(=O)O)N2C(=O)/C(=C/c3ccccn3)[C@H]2S1(=O)=O quantitativeresult=22
linenotation=Cn1cc(-c2ccnc(/C=C3/C(=O)N4[C@@H](C(=O)O)[C@](C)(COC(=O)Cc5ccc(O)c(O)c5)S(=O)(=O)[C@H]34)c2)cn1 quantitativeresult=24

Identify measured Kinact associated with `COc1ccnc(/C=C2/C(=O)N3[C@@H](C(=O)O)[C@](C)(COC(=O)Cc4ccc(O)c(O)c4)S(=O)(=O)[C@H]23)c1OC`
24

Identify measured Kinact associated with `C[C@]1(COC(=O)Cc2ccc(O)c(O)c2)[C@H](C(=O)O)N2C(=O)/C(=C/c3ccc(F)cn3)[C@H]2S1(=O)=O`
25

---

tested on: Klebsiella pneumoniae; test: Inhibition of OXA-48 in beta-lactam-resistant Klebsiella pneumoniae assessed as potentiation of imipenem-induced antibacterial activity by measuring imipenem MIC at 16 ug/mL in Mueller-Hinton broth by CLSI protocol based method (reference value: 64 ug/mL)
quantityName: MIC (µg/mL)
Field format: number, assumed µg/mL, no unit text.

Completed entries (count: 4):
linenotation=C[C@]1(COC(=O)Cc2ccc(O)c(O)c2)[C@H](C(=O)O)N2C(=O)/C(=C/c3ccccn3)[C@H]2S1(=O)=O quantitativeresult=4
linenotation=COc1ccnc(/C=C2/C(=O)N3[C@@H](C(=O)O)[C@](C)(COC(=O)Cc4ccc(O)c(O)c4)S(=O)(=O)[C@H]23)c1OC quantitativeresult=64
linenotation=C[C@]1(COC(=O)Cc2ccc(O)c(O)c2)[C@H](C(=O)O)N2C(=O)/C(=C/c3cc4ccccc4cn3)[C@H]2S1(=O)=O quantitativeresult=8
linenotation=Cn1cc(-c2ccnc(/C=C3/C(=O)N4[C@@H](C(=O)O)[C@](C)(COC(=O)Cc5ccc(O)c(O)c5)S(=O)(=O)[C@H]34)c2)cn1 quantitativeresult=8

Identify measured MIC associated with `C[C@]1(COC(=O)Cc2ccc(O)c(O)c2)[C@H](C(=O)O)N2C(=O)/C(=C/c3nccc4ccsc34)[C@H]2S1(=O)=O`
64

Identify measured MIC associated with `C[C@]1(COC(=O)Cc2ccc(O)c(O)c2)[C@H](C(=O)O)N2C(=O)/C(=C/c3ccc(F)cn3)[C@H]2S1(=O)=O`
4

Identify measured MIC associated with `C[C@]1(COC(=O)Cc2ccc(O)c(O)c2)[C@H](C(=O)O)N2C(=O)/C(=C/c3cc(Br)ccn3)[C@H]2S1(=O)=O`
4

Identify measured MIC associated with `O=C(NC1CCNCC1)[C@@H]1CC[C@@H]2CN1C(=O)N2OS(=O)(=O)O`
8
